# measuredTarget: T1, monkey antigen protein (monkey CD112R, Uniprot ID: A0A2K5WVV8) (monkey, UniProt A0A2K5WVV8 41-171)
# T1 sequence: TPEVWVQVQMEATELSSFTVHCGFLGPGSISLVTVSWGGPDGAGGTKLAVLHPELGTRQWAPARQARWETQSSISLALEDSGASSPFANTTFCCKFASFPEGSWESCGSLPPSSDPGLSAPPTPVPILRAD
# experimentNotes: ELISA, monkey antigen protein (as Example 6.1)
Recorded EC50 by entry
Number only, in pM; omit the unit.

Some binders with recorded EC50:
binder	EC50 / pM
C117 (antibody, human IgG1, kappa, V domains shown) VH: QVQLQQSGAELARPGASVKMSCKASGYTFTDYWMQWVKQRPGQGLEWIGAIFPGNGETRDTQKFKGRATLTADRSSSTAYIQLSSLTSEDSAVYYCATFNNYLDYWGQGTTLTVAS VL: QIVLTQSPAIMSASPGEKVTMTCSASSSVSYMHWYQQKSGASPKRWIYDTSKLTSGVPARFSGSGSGTSYSLTISNMEAEDAATYYCQQWISNPYTFGGGTKLEIKR	45
C20 (antibody, human IgG1, kappa, V domains shown) VH: EVQLVESGGGLVKPGGSLKLSCAASGFTFSDSYMCWVRQTPEKRLEWVATISDAGGYTYYPDSVKGRFTISRDNDRNNLYLQMSGLKSEDTAVYYCGREDLWGQGTSVTVSS VL: DIQMTQSPSSLSASLGERVSLTCRASQDIGRSLNWLQQEPDGTIKRLIYATSRLDSGVPKRFSGSRSGSDYSLTISSLESEDFVDYYCLQYASSPYTFGGGTKLEIKR	8360

Just so you know, measured EC50 for C39 (antibody, human IgG1, kappa, V domains shown) VH: QAYLQQSGAELVRPGASVKMSCKASGYTFTSYNIHWVKQTPRQGLEWIGAIYPGNADISYNQKFRDKATLTVDKSSSTAYMQLSSLTSEDSAVYFCAKPLRIYAMDCWGQGTSVTVSS VL: DIVMTQSQKFMSTSVGDRVSVTCKASQNVGTNVAWYQQKPGQSPKALIYSASYRYSGVPDRFTGSGSGTDFTLTISNVQSEDLADYFCQQYNSRPLTFGGGTKLEIKR came out at 141
